# METHOD_DESCRIPTION: Oral bioavailability in pediatric patient at > 40 mg/m2
# Assay type: ADME, organism-based
# EXPERIMENTAL_CONDITIONS: human, in vivo
RECORDED_METRIC: bioavailability (%)

>>> print(df.to_string())
                                   molecule  measure_unit  measurement
0  CN(Cc1cnc2nc(N)nc(N)c2n1)c1ccc(C(=O)N[C@@H](CCC(=O)O)C(=O)O)cc1 [METHOTREXATE]             %           18
